The measured values listed here are drawn from PubChem BioAssay (NCI).

system: HCT-15 colon; assay: NCI tumour cell line growth inhibition, 48 h
Recorded log10 TGI, one value per entry.
Values below are the log10 of the recorded TGI, with µM as the unit.

The following compounds have reported results that may help.
INSERT INTO assay_data (compound, assaytarget, observed) VALUES
  ('CC(C)(C)OC(=O)CN1C(=O)CC1CC(=O)c1ccccc1 (stereo unspecified)', 'HCT-15 colon', 1.57),
  ('CN(C)CCNC(=O)c1cccc2ccc(-c3ccncc3)nc12', 'HCT-15 colon', 1.08),
  ('Cc1ccc(-c2nc3nc(-c4ccccc4)nc(N4CCCNCC4)c3o2)cc1', 'HCT-15 colon', 0.51),
  ('COC1(C)CP(=O)(OC(C)C)CC(C)=C1Cl (stereo unspecified)', 'HCT-15 colon', 1.47),
  ('CC(C)(C)C(=O)OCOP(=O)(OCOC(=O)C(C)(C)C)OCC1OC(n2ccc(=O)[nH]c2=O)C(N=[N+]=[N-])C1O (stereo unspecified)', 'HCT-15 colon', 1.03);

### Prompt Dear colleague, I am looking for the recorded log10 TGI of the following compound: COc1cc2ncnc(Nc3cccc(Cl)c3)c2cc1OC
### Response 1.72

### Prompt State the recorded log10 TGI for this entry: c1ccc(CCCCNCc2cc(CNCCCCc3ccccc3)cc(CNCCCCc3ccccc3)c2)cc1
### Response -0.43
